The values you see were collected from ChEMBL document CHEMBL3352013.

biological target: CDK2/Cyclin A2 (Homo sapiens); test: Inhibition of human CDK2/cyclin A using Biotin-C6-PKTPKKAKKL substrate
measured.quantity: IC50

| smiles.input | IC50 |
| --- | --- |
| COc1cccc(OC)c1C(=O)Nc1c[nH]nc1C(=O)NCCN1CCOCC1 | > 10 µM |
| COc1cccc(OC)c1C(=O)Nc1c[nH]nc1C(=O)NCc1ccccn1 | > 10 µM |

// switching to the query molecule
Give the reported IC50 for this molecule. `COc1cccc(OC)c1C(=O)Nc1c[nH]nc1C(=O)NC1CC1`
> 10 µM

* * *

biological target: CDK2/Cyclin A2 (Homo sapiens, UniProt P24941); test: Inhibition of human CDK2/cyclin A using Biotin-C6-PKTPKKAKKL substrate
pIC50: −log10 of the molar value.
measured.quantity: pIC50

| smiles.input | pIC50 |
| --- | --- |
| CO[C@H]1CC[C@H](NC(=O)c2n[nH]cc2NC(=O)c2ccc(N3CCN(C)CC3)cc2)CC1 | 6.00 |
| COc1cccc(OC)c1C(=O)Nc1c[nH]nc1C(=O)Nc1ccncc1 | 5.89 |
| COc1ccccc1CC(=O)Nc1c[nH]nc1C(=O)N[C@H]1CC[C@H](OC)CC1 | 6.07 |
